Values compiled from patent US20140087995A1.

# measured target: T1, human calcitonin receptor (human, UniProt P30988 25-474)
# T1 sequence (looked up): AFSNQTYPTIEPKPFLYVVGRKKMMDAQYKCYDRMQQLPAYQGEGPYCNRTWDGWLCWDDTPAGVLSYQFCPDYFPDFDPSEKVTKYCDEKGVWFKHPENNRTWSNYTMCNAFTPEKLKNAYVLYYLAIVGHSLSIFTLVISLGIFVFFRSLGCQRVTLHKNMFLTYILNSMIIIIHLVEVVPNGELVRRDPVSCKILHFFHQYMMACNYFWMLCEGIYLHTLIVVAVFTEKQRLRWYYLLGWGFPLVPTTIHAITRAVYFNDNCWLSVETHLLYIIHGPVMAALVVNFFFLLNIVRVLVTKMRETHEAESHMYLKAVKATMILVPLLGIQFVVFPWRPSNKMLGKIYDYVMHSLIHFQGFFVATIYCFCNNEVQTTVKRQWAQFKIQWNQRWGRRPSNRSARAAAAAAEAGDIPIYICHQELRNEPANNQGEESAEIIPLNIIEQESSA
# protocol: cell-based or functional assay
Numbered stars: 1 amine (or outer) side, 2 acyl side, 3 side chain; on linkers, the order of the positions; unused ones are H or OH. Bridge positions count the residues as written; N and C are the ends. Side chains are listed from the residue outwards. Ends that are not written are not given here. * marks the point of attachment. C20 diacid = O=C(O)CCCCCCCCCCCCCCCCCCC(=O)*; γGlu = O=C(O)[C@H](CCC(=O)[*:2])N[*:1]; C14 diacid = O=C(O)CCCCCCCCCCCCC(=O)*
assay readout: Ratio hCT/hAmylin funct.

A selection of reference data follows.
• K([γGlu-C20 diacid])CNTATCATQRLAEFLRHSSPNFGAIPSSTNVGPRTY-NH2 (disulfide 2-7 (inferred)) = 17
• K([γGlu-γGlu-C20 diacid])CNTATCATQRLAEFLRHSSPNFGAIPSSTNVGHETY-NH2 (disulfide 2-7 (inferred)) = 15.8
• K([γGlu-C14 diacid])CNTATCATQRLANFLRHSSPNFGAIPSSTNVGHNTY-NH2 (disulfide 2-7 (inferred)) [N^ε1-[(4S)-4-carboxy-4-(13-carboxytridecanoylamino)butanoyl]-[Arg17,Pro21,Pro27,His34]-h-amylin] = 38.8
• K([γGlu-C20 diacid])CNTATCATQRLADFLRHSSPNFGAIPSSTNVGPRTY-NH2 (disulfide 2-7 (inferred)) = 24.9

a: K([γGlu-γGlu-C20 diacid])CNTATCATQRLAHFLRHSSPNFGAIPSSTNVGSNTY-NH2 (disulfide 2-7 (inferred), also called compound 92)
b: K([γGlu-γGlu-C20 diacid])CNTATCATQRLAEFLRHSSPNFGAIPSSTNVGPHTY-NH2 (disulfide 2-7 (inferred))
Lookup: Returns: the argument ( a or b ) having the larger Ratio hCT/hAmylin funct.. Mark your answer with the label of the selected entry.
Found: a
(a: 28, b: 16.4)
